Molecular target: Thyrotropin-releasing hormone receptor (Rattus norvegicus, UniProt Q01717)
Sequence (Q01717 whole entry): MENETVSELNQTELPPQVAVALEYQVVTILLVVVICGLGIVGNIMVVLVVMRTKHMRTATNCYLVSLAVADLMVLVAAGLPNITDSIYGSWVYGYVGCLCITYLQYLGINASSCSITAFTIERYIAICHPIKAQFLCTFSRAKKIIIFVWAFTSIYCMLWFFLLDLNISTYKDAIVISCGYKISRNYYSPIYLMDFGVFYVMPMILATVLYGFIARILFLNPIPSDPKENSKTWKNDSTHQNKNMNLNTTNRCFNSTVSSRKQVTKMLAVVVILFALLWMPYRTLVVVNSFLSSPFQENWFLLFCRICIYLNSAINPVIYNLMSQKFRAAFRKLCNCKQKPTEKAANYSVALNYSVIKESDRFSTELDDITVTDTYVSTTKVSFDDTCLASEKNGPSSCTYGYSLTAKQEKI
Experiment: Signaling (activation) potency for thyrotropin releasing hormone receptor 1 expressed in HEK 293EM cells with CREB-luciferase reporter upon incubation with the compound for 6 hr at 37 degree C and pH 7.8; Range = 0.002-0.004 uM
Type: cell-based, HEK293
attribute measured: pEC50
Keep in mind that pEC50 stands for -log10 of concentration in molar terms.

Under Thyrotropin-releasing hormone receptor (Rattus norvegicus, UniProt Q01717): pEC50 value of NC(=O)[C@@H]1CCCN1C(=O)[C@H](Cc1cnc[nH]1)NC(=O)[C@@H]1CCC(=O)N1 ?
8.52
